FYI, the data here is from PubChem BioAssay.

Tested on: Human papillomavirus type 1a E7 protein (residues 1-88)
Assay: HPV1a E7 small-molecule binders, primary screen, biochemical, small-molecule microarray, residues 1-88, 635 nm (AID 1129)
Conditions: small-molecule microarray binding, fluorescence 635 nm; higher = more signal
Assign composite z-score to each entry below.
Give bare numbers.

>>> recorded_number("COCCOC(=O)N1C(=O)[C@@]2(c3cc(C#CCCO)ccc31)[C@H](C(=O)NC[C@H](O)c1ccccc1)[C@H]1C(=O)O[C@H](c3ccccc3)[C@H](c3ccccc3)N1[C@@H]2c1ccc(OCCO)cc1")
1.18
>>> recorded_number("COCCn1c(C(=O)N(C)C)cc2c1C[C@H]1CN(C(=O)c3ccccc3)[C@@](Cc3ccc(F)cc3)(C(=O)OC)[C@@H]21")
1.1
>>> recorded_number("C=CCC(OC(C)=O)[C@@H]1[C@@H](N(Cc2ccc(-c3ccccc3)cc2)C(=O)c2ccc(C)cc2)c2cc(OCCCO)ccc2N1C(=O)c1ccc2ccccc2n1 (some centres not stated)")
-0.0119

// each compound listed below needs its composite z-score
1. C=CCC(OC(C)=O)[C@@H]1[C@@H](N(Cc2cc3ccccc3o2)C(=O)c2cccc3ccccc23)c2cc(OCCCO)ccc2N1C(=O)Cc1ccc2ccccc2c1 (some centres not stated)
2. C=CCC(OC(C)=O)[C@@H]1[C@@H](N(Cc2cc3ccccc3o2)C(=O)c2cccc3ccccc23)c2cc(OCCCO)ccc2N1C(=O)Cc1ccc(OC)cc1 (some centres not stated)
3. CN1C(=O)C2C=CC(C(O)C=Cc3ccc([N+](=O)[O-])cc3)N(N3CCCCC3)C2C1=O (configuration not stated)
4. C=C(C)[C@@H]1CC=C(C(O)C2C=CC3C(=O)N(Cc4ccccc4)C(=O)C3N2n2cnnc2)CC1 (some centres not stated)

[-0.273, -0.328, 1.2, -0.124]

* * *

Tested on: Inhibin beta A chain (activin A)
Experiment: small molecules binding activin A – biochemical, small-molecule microarray, 635 nm fluorescence scan, primary screen (AID 1107);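 also: mouse activin A protein probed at 4.33 µg/mL on printed slides; score merges bound-protein fluorescence near 667 nm with spot signal-to-noise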
Conditions: INHBA, higher = more signal
Classify as follows. Reported composite z-score greater than or equal to 1: Y. Reported composite z-score below: N.

Look over these answered cases.
>>> label_value("CC(C)[C@H]1COC(=O)N1C(=O)[C@H]1[C@@H](c2ccccc2)N(c2ccccc2)O[C@@H]1C")
"N"
>>> label_value("CCN(CC)c1ccc(N2CC=CC34O[C@@H]5/C=C\\CCC(C)OC(=O)C5[C@H]3C(=O)N(CCCCCCO)[C@@H]4C2=O)cc1 (stereo partly specified)")
"Y"
>>> label_value("COc1cc(NN2C(C(O)c3ccccc3)C=CC3C(=O)N(c4ccccc4)C(=O)C32)cc(OC)c1OC (stereo unspecified)")
"N"
>>> label_value("CN(C)CCCC[C@@H]1NC(=O)[C@@H]2C[C@H](C(=O)NCCCCCN)[C@H](c3ccc(O)cc3)N2C1=O")
"N"
>>> label_value("C=C(COC)/C(=C/C[C@H](OC(C)=O)c1ccccc1OCCO)c1cnc2ccccc2c1")
"Y"

Evaluate C=CCNC(=O)[C@H]1[C@@H]2C(=O)O[C@@H](c3ccccc3)[C@@H](c3ccccc3)N2[C@@H](c2ccc(OCCO)cc2)[C@]12C(=O)N(C(=O)OCCOC)c1ccc(C#CC3(O)CCCCCC3)cc12 : composite z-score at minimum 1?
Y

* * *

Assign z-score to each entry below.
Experiment: JC-1 mitochondrial signal, unstimulated HepG2 cells – cell-based, JC-1 fluorescence, 24 h, 100 nL compound, profiling panel (AID 1167); also: test concentration not given here
Settings: HepG2 mitochondrial potential, higher = more signal
Answers are plain numbers.

Worked set:
>>> recorded_number("CC(C)(C)OC(=O)CC[C@@]1(C(N)=O)N=C(c2ccc(OCCCO)cc2)O[C@@H]1c1ccccc1N=[N+]=[N-]")
0.221
>>> recorded_number("COC(=O)[C@@]1(Cc2ccccc2)[C@H]2c3cc(C(=O)N(C)C)n(Cc4cc(F)c(F)c(F)c4)c3C[C@H]2CN1C(=O)c1ccccc1")
0.891
>>> recorded_number("O=C1C[C@@](C(=O)O)(c2ccc([N+](=O)[O-])cc2)[C@@H](c2ccc(CO)cc2I)N1C1CCCCC1")
0.053
>>> recorded_number("COC(=O)c1c2oc(c1C(=O)OC)C(=O)N[C@H](Cc1ccccc1)Cn1nncc1C1(CCCCC1)NC(=O)N[C@H](CO)CC2")
3.8
>>> recorded_number("CN1C(=O)C2C=CC(C(O)C(c3ccccc3)c3ccccc3)N(Nc3ccccc3)C2C1=O (configuration not stated)")
-1.66
>>> recorded_number("COc1ccc(C#Cc2ccc3c(c2)[C@]2(C(=O)N3)[C@H](c3ccc(OCCO)cc3)N3[C@H](c4ccccc4)[C@H](c4ccccc4)OC(=O)[C@H]3[C@@H]2C(=O)Nc2nc3ccccc3s2)cc1")
-2.95

Given the entry COc1ccc([Si](C)(C)[C@H]2[C@H](CC(=O)N3CCC[C@H]3CO)O[C@@]3(C(=O)N(Cc4cccc(N5CCC5=O)c4)c4ccccc43)[C@@H]2C)cc1 , report its measured z-score.
3.25

* * *

Assign composite z-score to each entry below.
Assay: binders from COS7 lysate, DM2A8 probe, primary screen, torsin A project, cell lysate, small-molecule microarray, fluorescence 635/667 (AID 1065)
Conditions: higher = more signal, COS7 lysate expressing mutant human TOR1A
Give bare numbers.

Worked set:
>>> recorded_number("C=CCC(OC(C)=O)[C@@H]1[C@@H](N(Cc2ccc(-c3ccccc3)cc2)C(=O)c2ccc(C)cc2)c2cc(OCCCO)ccc2N1C(=O)Cc1ccc(OC)cc1 (some centres undefined)")
0.0667
>>> recorded_number("CC(=O)N1Cc2ccccc2C[C@@]2(N=C(c3ccc(OCCCO)cc3)O[C@H]2c2ccccc2)C1=O")
0.0287
>>> recorded_number("Cc1ccc(S[C@]2(C(=O)NCc3ccccc3)CC(=O)N(Cc3cc(C(F)(F)F)cc(C(F)(F)F)c3)[C@@H]2c2ccc(CO)cc2)cc1")
-0.779

# next compound below
Given the entry CCN(CC)c1ccc(N2CC=CC34O[C@@H]5C=CCOC(=O)[C@@H]5[C@H]3C(=O)N(CCCCCO)[C@@H]4C2=O)cc1 (some centres undefined) , report its measured composite z-score.
2.08

* * *

Assign composite z-score to each entry below.
Assay: COS7 lysate on small-molecule microarray, probe aHis, 635 nm (AID 1123);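 also: z-score combines 667nm fluorescence intensity with signal-to-noise per printed compound spot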
Conditions: COS7 cell lysate, fluorescence, higher = more signal

Worked set:
>>> result("O=C1C2C=CC(C(O)c3ccc(Br)cc3)N(n3cnnc3)C2C(=O)N1Cc1ccccc1 (stereo not drawn)")
1.57
>>> result("C=C(/C(=C/C[C@@H](OC(=O)c1ccncc1)c1ccc(CO)o1)c1cc(C(=O)OC)ccc1OC)C(C)C")
1.13
>>> result("COCCOC(=O)N1C(=O)[C@@]2(c3cc(C#CC4(O)CCCCCC4)ccc31)[C@H](c1ccc(O)cc1)N1[C@H](c3ccccc3)[C@H](c3ccccc3)OC(=O)[C@H]1[C@@H]2C(=O)N1CCc2cc(OC)c(OC)cc2C1")
0.288
>>> result("COc1ccc([Si](C)(C)[C@H]2[C@H](CC(=O)N3Cc4ccccc4C[C@H]3CO)O[C@@]3(C(=O)N(Cc4cccc(I)c4)c4ccccc43)[C@@H]2C)cc1")
-0.0845

// each molecule listed below needs its composite z-score
1. CO[C@H]1O[C@H](CO)[C@@H](OC(=O)Nc2cccc(F)c2)[C@H](OC(=O)Nc2ccccc2-c2ccccc2)[C@@H]1OC(=O)Nc1ccccc1-c1ccccc1
2. NC(=O)NCC#Cc1ccc2c(c1)[C@]1(C(=O)N2)[C@H](c2ccccc2OCCO)N2[C@H](c3ccccc3)[C@H](c3ccccc3)OC(=O)[C@H]2[C@@H]1C(=O)N1CCCCCCC1

2.56
3.72

* * *

Assign composite z-score to each entry below.
Test: probe aNOTCH3 binding on compound microarray – biochemical, small-molecule microarray, 635/667 nm fluorescence, primary screen (AID 1120);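 also: probe is a biotin-tagged antibody raised against NOTCH3 rather than NOTCH3 protein; score merges spot fluorescence near 667 nm with spot signal to noise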
Settings: higher = more signal
Give bare numbers.

// each compound listed below needs its composite z-score
1. C=C(C(=O)CC[C@@H](OC(=O)c1cccnc1)c1ccc(CO)o1)C(C)C
2. CO[C@H]1O[C@H](CO)[C@@H](OC(=O)Nc2cccc(F)c2)[C@H](OC(=O)Nc2ccccc2-c2ccccc2)[C@@H]1OC(=O)Nc1ccccc1-c1ccccc1
3. COc1ccc([Si](C)(C)[C@@H]2[C@@H](CCO)O[C@]3(C(=O)N(Cc4cccc(N5CCCCC5=O)c4)c4ccccc43)[C@H]2C)cc1

0.101
0.0479
0.134

// each compound listed below needs its composite z-score
1. Cc1ccc(S[C@]2(C(=O)NCc3ccccc3)CC(=O)N(Cc3cc(C(F)(F)F)cc(C(F)(F)F)c3)[C@@H]2c2ccc(CO)cc2)cc1
2. CN(C)CCCC[C@@H]1NC(=O)[C@@H]2C[C@H](C(=O)NCCCCCCN)[C@H](c3ccc(O)cc3)N2C1=O
3. CO[C@H]1O[C@H](CO)[C@@H](OC(=O)Nc2ccc(C(F)(F)F)cc2)[C@H](OC(=O)Nc2ccccc2)[C@@H]1OC(=O)Nc1ccccc1
4. Cc1ccc(S(=O)(=O)N2CC(C(=O)O)=CCC2c2ccccc2)cc1 (configuration not stated)

1. -0.128
2. 0.575
3. 0.217
4. -0.287
